Just for reference, patent US6465499B1 is where these values come from.

OBSERVABLE: melting point

Item under review: `Cc1noc(C)c1S(=O)(=O)n1c(=O)sc2c(C(F)(F)F)cc(C(F)(F)F)cc21` . Reported melting point?
152 to 156 °C

Item under review: `Cc1noc(C)c1S(=O)(=O)n1c(=O)sc2c(C(F)(F)F)cc([N+](=O)[O-])cc21` . Reported melting point?
210 to 213 °C

Item under review: `Cc1noc(C)c1S(=O)(=O)n1c(=O)sc2c([N+](=O)[O-])cc(C(F)(F)F)cc21` . Reported melting point?
129 to 133 °C

Item under review: `Cc1noc(C)c1S(=O)(=O)n1c(=O)oc2ccc(Cl)cc21` . Reported melting point?
183 to 187 °C

Item under review: `Cc1noc(C)c1S(=O)(=O)n1c(=O)oc2c(Cl)cc(Cl)cc21` . Reported melting point?
164 to 166 °C
